Field IC50: reported value for Cytochrome P450 2D6 (Homo sapiens, UniProt P10635); entries drawn from several documents.
measured-parameter: IC50 (µM)

[[record]]
compound = "Cc1cc(Nc2cc(C)c(C#N)c(NCCOc3ccccc3Cl)n2)n[nH]1"
display_unit = "µM"
result_number = 6.5


P. Cc1cc(C(=O)Nc2nc3cccc(Cl)c3n2[C@@H]2CCCCN(C(=O)/C=C/CN(C)C)C2)ccn1
Q. CC(C)Cn1c(=O)n(C2CCN(C(=O)C3CCN(Cc4ccncc4)CC3)CC2)c2ccccc21
Record comparison, field IC50: mark the lower of P and Q . Field: selected label. Fill in the label of the entry you choose.
Q
(Q: 1.9 µM, P: 7 µM)
